System: DMS 114 small cell lung
procedureText: NCI tumour cell line growth inhibition, 48 h
propertyLabel: TGI (µM)
Give the number; µM is assumed, so skip it.

>>> readoutnumber("[O-][n+]1c2cc(CBr)c(CBr)cc2[n+]([O-])c2c(O)cccc21")
3.35
>>> readoutnumber("Cc1nc2c(nc1C)C(=O)C1=C(C2=O)C2C=CC1CC2")
3.71
>>> readoutnumber("COC(=O)C1C(O)C(C)C(O)C(C)(O)/C=C/C=C(C)C(=O)Nc2c(C)c(OC(C)=O)c3c(c2O)C(=O)C(C)=C2OCOC(=C23)C(C)=CC(C)(O)C(O)C(C)C1OC(C)=O (stereo not given)")
25.4

# input Dear colleague, please send me the reported TGI for COc1cccc(C=O)c1[O-].COc1cccc(C=O)c1[O-].[Cu+2] when you can.
# output 1.2
